Taken from patent US11369565B2.

# Tested on: rabbit skeletal myofibrils (approximately 90% fast fibers)
# PROTOCOL DESCRIPTION: Activation of fast skeletal myofibrils (PUMA coupled-enzyme ATPase assay at pCa25)
# Assay type: biochemical
# CONDITIONS USED: concentration at which the compound increased the enzymatic activity by 40%; calcium at pCa25; PM12 buffer pH 6.8
ATTRIBUTE MEASURED: Mean AC1.4

[
  {
    "MOLECULE": "COC(=O)c1ccn(-c2cnc(NC[C@]3(c4ncccc4F)C[C@H](F)C3)nc2)c1",
    "ATTRIBUTE MEASURED": "Mean AC1.4",
    "RESULT": "D (D=>20 uM)"
  },
  {
    "MOLECULE": "O=C1Cc2cccc(-c3cnc(NC[C@]4(c5ncccc5F)C[C@H](F)C4)nc3)c2N1",
    "ATTRIBUTE MEASURED": "Mean AC1.4",
    "RESULT": "B (B=1-10 uM)"
  },
  {
    "MOLECULE": "CC(C)(C)Nc1ncc(-c2ccc3[nH]nc(N)c3c2)cn1",
    "ATTRIBUTE MEASURED": "Mean AC1.4",
    "RESULT": "B (B=1-10 uM)"
  },
  {
    "MOLECULE": "CC(C)(Nc1ncc(-c2nc(C(N)=O)co2)cn1)c1ncccc1Cl",
    "ATTRIBUTE MEASURED": "Mean AC1.4",
    "RESULT": "D (D=>20 uM)"
  },
  {
    "MOLECULE": "N#Cc1n[nH]c2ccc(-c3cnc(NC4(c5ncccc5F)CCC4)nc3)cc12",
    "ATTRIBUTE MEASURED": "Mean AC1.4",
    "RESULT": "B (B=1-10 uM)"
  },
  {
    "MOLECULE": "O=C1NCc2cccc(-c3cnc(NC[C@]4(c5ncccc5F)C[C@H](F)C4)nc3)c21",
    "ATTRIBUTE MEASURED": "Mean AC1.4",
    "RESULT": "B (B=1-10 uM)"
  },
  {
    "MOLECULE": "O=C(NC1CC(O)C1)c1cccc(-c2cnc(NC[C@]3(c4ncccc4F)C[C@H](F)C3)nc2)c1 (stereo partly drawn)",
    "ATTRIBUTE MEASURED": "Mean AC1.4",
    "RESULT": "B (B=1-10 uM)"
  },
  {
    "MOLECULE": "CC(C)(Nc1ncc(-c2ccc(C(=O)O)s2)cn1)c1ncccc1Cl",
    "ATTRIBUTE MEASURED": "Mean AC1.4",
    "RESULT": "D (D=>20 uM)"
  }
]
